src = BindingDB's records for doi:10.1021/jm00078a018

test: Inhibition of binding of [125I]-CCK-8 to the cholecystokinin type B receptor
pIC50: −log10 of the molar value.
Rule: pIC50 of 7 or more gives 1.0; anything lower gives 0.0.

compound=CN1C(=O)[C@H](NC(=O)NCc2cccc(O)c2)N=C(c2ccccc2)c2ccccc21 class_label=1.0
compound="COc1ccc(NC(=O)NC2N=C(c3ccccc3)c3ccccc3N(C)C2=O)cn1 (stereo not given)" class_label=0.0
compound="Cc1cccc(NC(=O)NC2N=C(c3ccccc3)c3ccccc3N(CCO)C2=O)c1 (stereo not given)" class_label=1.0
compound="CN1C(=O)C(NC(=O)Nc2ccc3c(c2)CCC3)N=C(c2ccccc2)c2ccccc21 (stereo not given)" class_label=1.0
compound=CN1C(=O)[C@H](NC(=O)Nc2ccc(Cl)cc2)N=C(c2ccccc2)c2ccccc21 class_label=1.0
compound="Cc1ccc(NC(=O)NC2N=C(c3ccccc3)c3ccccc3N(C)C2=O)cc1C (stereo not given)" class_label=1.0
compound="CN1C(=O)C(NC(=O)NC2CCCCC2)N=C(c2ccccc2)c2ccccc21 (stereo not given)" class_label=0.0
compound="CN1C(=O)C(NC(=O)Nc2ccccc2[N+](=O)[O-])N=C(c2ccccc2)c2ccccc21 (stereo not given)" class_label=0.0
compound=CN1C(=O)[C@H](NC(=O)Nc2cccc(N)c2)N=C(c2ccccc2)c2ccccc21 class_label=1.0
compound="CN1C(=O)C(NC(=O)Nc2ccc(Cl)cc2Cl)N=C(c2ccccc2)c2ccccc21 (stereo not given)" class_label=0.0
compound="CN1C(=O)C(NC(=O)Nc2ccccc2)N=C(c2ccccc2)c2ccccc21 (stereo not given)" class_label=1.0
compound="O=C(Nc1ccc(Cl)cc1)NC1N=C(c2ccccc2)c2ccccc2NC1=O (stereo not given)" class_label=0.0
compound="Cc1cccc(NC(=O)NC2N=C(c3ccccc3)c3ccccc3N(CC(=O)Nc3ccncc3)C2=O)c1 (stereo not given)" class_label=1.0
compound="COc1cccc(NC(=O)NC2N=C(c3ccccc3)c3ccccc3N(CC[N+](C)(C)C)C2=O)c1 (stereo not given)" class_label=0.0
compound="CN1C(=O)C(NC(=O)NCc2ccccc2)N=C(c2ccccc2)c2ccccc21 (stereo not given)" class_label=0.0
compound=CN1C(=O)[C@H](NC(=O)Nc2cccc(I)c2)N=C(c2ccccc2)c2ccccc21 class_label=1.0
compound="CC(=O)c1cccc(NC(=O)NC2N=C(c3ccccc3)c3ccccc3N(C)C2=O)c1 (stereo not given)" class_label=1.0

* * *

Measured pIC50 of individual entries
test: Inhibition of binding of [125I]-CCK-8 to the cholecystokinin type B receptor
pIC50: −log10 of the molar value.
Readout: pIC50

molecule="CN1C(=O)C(NC(=O)NCc2cccc(C(C)(C)O)c2)N=C(c2ccccc2)c2ccccc21 (centres undefined)" result_number=8.23
molecule=CN1C(=O)[C@H](NC(=O)Nc2cccc(O)c2)N=C(c2ccccc2)c2ccccc21 result_number=7.82
molecule="CCN(CC)C(=O)CN1C(=O)C(NC(=O)Nc2ccc(Cl)cc2)N=C(c2ccccc2)c2ccccc21 (centres undefined)" result_number=9.22
molecule="CN1C(=O)C(NC(=O)Nc2cccc(-c3ccccc3)c2)N=C(c2ccccc2)c2ccccc21 (centres undefined)" result_number=6.95
molecule="CN1CCN(C(=O)CN2C(=O)C(NC(=O)Nc3ccc(Cl)cc3)N=C(c3ccccc3)c3ccccc32)CC1 (centres undefined)" result_number=9.10
molecule="COc1ccc(NC(=O)NC2N=C(c3ccccc3)c3ccccc3N(C)C2=O)cc1 (centres undefined)" result_number=7.59
molecule="CN1C(=O)C(NC(=O)Nc2ccncc2)N=C(c2ccccc2)c2ccccc21 (centres undefined)" result_number=5.97
molecule="COc1cc(NC(=O)NC2N=C(c3ccccc3)c3ccccc3N(C)C2=O)cc(OC)c1 (centres undefined)" result_number=5.64
molecule="Cc1cccc(NC(=O)NC2N=C(c3ccccc3)c3ccccc3N(Cc3cnc[nH]3)C2=O)c1 (centres undefined)" result_number=8.10

* * *

assay: Inhibition of binding of [125I]-CCK-8 to the cholecystokinin type B receptor
pIC50: −log10 of the molar value.
Measured pIC50 of individual entries
Readout: pIC50

compound=O=C(Nc1ccc(Cl)cc1)N[C@@H]1N=C(c2ccccc2)c2ccccc2N(CC(=O)N2CCCC2)C1=O result_number=8.85
compound="CN1C(=O)C(NC(=O)Nc2ccc(N)nc2)N=C(c2ccccc2)c2ccccc21 (stereo unspecified)" result_number=6.30
compound="CCN(CC)C[C@H](O)CN1C(=O)C(NC(=O)Nc2ccc(Cl)cc2)N=C(c2ccccc2)c2ccccc21 (stereo partly specified)" result_number=6.39
compound="C#Cc1cccc(NC(=O)NC2N=C(c3ccccc3)c3ccccc3N(C)C2=O)c1 (stereo unspecified)" result_number=7.66
compound="O=C(Nc1ccc(Cl)cc1)NC1N=C(c2ccccc2)c2ccccc2N(C[C@@H](O)CO)C1=O (stereo partly specified)" result_number=6.98
compound="CCN(CC)C(=O)C(C)N1C(=O)C(NC(=O)Nc2ccc(Cl)cc2)N=C(c2ccccc2)c2ccccc21 (stereo unspecified)" result_number=7.66

* * *

assay: Inhibition of binding of [125I]-CCK-8 to the cholecystokinin type B receptor
pIC50: −log10 of the molar value.
Classification by pIC50 | ranges: low (below 7), mid (7 to below 8), high (8 or more)

compound=CN1C(=O)[C@H](NC(=O)Nc2cccc(CN)c2)N=C(c2ccccc2)c2ccccc21 class_label=low
compound="CN1C(=O)C(NC(=O)Nc2ccc3ccccc3n2)N=C(c2ccccc2)c2ccccc21 (configuration not stated)" class_label=mid
compound="CN1C(=O)C(NC(=O)Nc2cccc(CC(=O)O)c2)N=C(c2ccccc2)c2ccccc21 (configuration not stated)" class_label=high
compound="CN1C(=O)C(NC(=O)Nc2cccc(CNC(=O)OC(C)(C)C)c2)N=C(c2ccccc2)c2ccccc21 (configuration not stated)" class_label=low
compound="CN1C(=O)C(NC(=O)Nc2ccc(Br)cc2)N=C(c2ccccc2)c2ccccc21 (configuration not stated)" class_label=mid
compound="CN1C(=O)C(NC(=O)Nc2ccc3ncccc3c2)N=C(c2ccccc2)c2ccccc21 (configuration not stated)" class_label=mid
compound="CN1C(=O)C(NC(=O)Nc2ccc(Cl)nc2)N=C(c2ccccc2)c2ccccc21 (configuration not stated)" class_label=mid
compound=COc1cccc(NC(=O)N[C@@H]2N=C(c3ccccc3)c3ccccc3N(C)C2=O)c1 class_label=high
compound=CN1C(=O)[C@H](NC(=O)Nc2cccc(Br)c2)N=C(c2ccccc2)c2ccccc21 class_label=high
compound="CN1C(=O)C(NC(N)=O)N=C(c2ccccc2)c2ccccc21 (configuration not stated)" class_label=low
compound="COc1cccc(NC(=O)NC2N=C(c3ccccc3)c3ccccc3N(CC(=O)N3CCN(C)CC3)C2=O)c1 (configuration not stated)" class_label=high
compound="CN1C(=O)C(NC(=O)Nc2cccc(C(F)(F)F)c2)N=C(c2ccccc2)c2ccccc21 (configuration not stated)" class_label=high
compound="COc1cccc(NC(=O)NC2N=C(c3ccccc3)c3ccccc3N(CCC(=O)O)C2=O)c1 (configuration not stated)" class_label=low
compound=CN1C(=O)[C@H](NC(=O)c2ccc(C(F)(F)F)cc2)N=C(c2ccccc2)c2ccccc21 class_label=low

* * *

test: Inhibition of binding of [125I]-CCK-8 to the cholecystokinin type B receptor
pIC50: −log10 of the molar value.
Readout: pIC50

molecule="Cc1cccc(NC(=O)NC2N=C(c3ccccc3)c3cnccc3N(C)C2=O)c1 (stereo unspecified)" result_number=6.20
molecule=C=Cc1cccc(NC(=O)N[C@@H]2N=C(c3ccccc3)c3ccccc3N(C)C2=O)c1 result_number=7.46
molecule="O=C(Nc1ccc(Cl)cc1)NC1N=C(c2ccccc2)c2ccccc2N(Cc2nnn[nH]2)C1=O (stereo unspecified)" result_number=6.31
molecule=COC(=O)c1cccc(NC(=O)N[C@@H]2N=C(c3ccccc3)c3ccccc3N(C)C2=O)c1 result_number=8.10
molecule="CN1C(=O)C(NC(=O)NC(C)(C)C)N=C(c2ccccc2)c2ccccc21 (stereo unspecified)" result_number=4.42
molecule="Cc1cccc(NC(=O)NC2N=C(c3ccccc3)c3ccccc3N(CC(=O)ON3CCC[C@@H]3C(=O)O)C2=O)c1 (stereo partly specified)" result_number=6.89
molecule="O=C(Nc1ccc(Cl)cc1)NC1N=C(c2ccccc2)c2ccccc2N(CC(=O)OCc2ccccc2)C1=O (stereo unspecified)" result_number=7.36
molecule="O=C(Nc1ccc(Cl)cc1)NC1N=C(c2ccccc2)c2ccccc2N(C[C@@H](O)CN2CCCC2)C1=O (stereo partly specified)" result_number=6.52
molecule="CN1C(=O)C(NC(=O)Nc2cccc([N+](=O)[O-])c2)N=C(c2ccccc2)c2ccccc21 (stereo unspecified)" result_number=7.96
molecule=Cc1cccc(NC(=O)N[C@@H]2N=C(c3ccccc3)c3ccccc3NC2=O)c1 result_number=7.40
molecule=CN1C(=O)[C@@H](NC(=O)Nc2ccccc2Cl)N=C(c2ccccc2)c2ccccc21 result_number=6.55

* * *

assay: Inhibition of binding of [125I]-CCK-8 to the cholecystokinin type B receptor
Measured IC50 of individual entries
Readout: IC50 (nM)

compound=COc1cccc(NC(=O)N[C@H]2N=C(c3ccccc3)c3ccccc3N(C)C2=O)c1 relation_symbol== result_number=300
compound="CCN(CC)C(=O)CN1C(=O)C(NC(=O)Nc2ccccc2Cl)N=C(c2ccccc2)c2ccccc21 (configuration not stated)" relation_symbol== result_number=3.8
compound="CCOC(=O)CN1C(=O)C(NC(=O)N[C@@H](C)c2ccccc2)N=C(c2ccccc2)c2ccccc21 (some centres not stated)" relation_symbol=> result_number=100
compound="CN1C(=O)C(NC(=O)Nc2cccc(Br)c2)N=C(c2ccccc2)c2ccccc21 (configuration not stated)" relation_symbol== result_number=5
compound="Cc1cccc(NC(=O)NC2N=C(c3ccccc3)c3ccccc3N(CC(=O)N3CCN(C)CC3)C2=O)c1 (configuration not stated)" relation_symbol== result_number=3.5
compound="COC(=O)[C@H]1CCCN1OC(=O)CN1C(=O)C(NC(=O)Nc2cccc(OC)c2)N=C(c2ccccc2)c2ccccc21 (some centres not stated)" relation_symbol== result_number=9.7
compound="C[C@H](NC(=O)NC1N=C(c2ccccc2)c2ccccc2N(C)C1=O)c1ccccc1 (some centres not stated)" relation_symbol== result_number=11000
compound="Cc1cccc(NC(=O)NC2N=C(c3ccccc3)c3ccccc3N(CC(=O)O)C2=O)c1 (configuration not stated)" relation_symbol== result_number=380
compound="Cc1cccc(NC(=O)NC2N=C(c3ccccc3)c3ccccc3N(Cc3ncc[nH]3)C2=O)c1 (configuration not stated)" relation_symbol== result_number=59
compound="O=C(Nc1ccc(Cl)cc1)NC1N=C(c2ccccc2)c2ccccc2N(C[C@@H](O)CCl)C1=O (some centres not stated)" relation_symbol== result_number=6
compound="CN1C(=O)C(NC(=O)Nc2cccc(C(=O)O)c2)N=C(c2ccccc2)c2ccccc21 (configuration not stated)" relation_symbol== result_number=9.7
compound=CN1C(=O)[C@@H](NC(=O)c2ccc(C(F)(F)F)cc2)N=C(c2ccccc2)c2ccccc21 relation_symbol== result_number=4600
